Values were extracted from ChEMBL document CHEMBL4725404.

target-system: Rho-associated protein kinase 2 (Homo sapiens)
Sequence (O75116 whole entry, looked up, the tested form may be a part): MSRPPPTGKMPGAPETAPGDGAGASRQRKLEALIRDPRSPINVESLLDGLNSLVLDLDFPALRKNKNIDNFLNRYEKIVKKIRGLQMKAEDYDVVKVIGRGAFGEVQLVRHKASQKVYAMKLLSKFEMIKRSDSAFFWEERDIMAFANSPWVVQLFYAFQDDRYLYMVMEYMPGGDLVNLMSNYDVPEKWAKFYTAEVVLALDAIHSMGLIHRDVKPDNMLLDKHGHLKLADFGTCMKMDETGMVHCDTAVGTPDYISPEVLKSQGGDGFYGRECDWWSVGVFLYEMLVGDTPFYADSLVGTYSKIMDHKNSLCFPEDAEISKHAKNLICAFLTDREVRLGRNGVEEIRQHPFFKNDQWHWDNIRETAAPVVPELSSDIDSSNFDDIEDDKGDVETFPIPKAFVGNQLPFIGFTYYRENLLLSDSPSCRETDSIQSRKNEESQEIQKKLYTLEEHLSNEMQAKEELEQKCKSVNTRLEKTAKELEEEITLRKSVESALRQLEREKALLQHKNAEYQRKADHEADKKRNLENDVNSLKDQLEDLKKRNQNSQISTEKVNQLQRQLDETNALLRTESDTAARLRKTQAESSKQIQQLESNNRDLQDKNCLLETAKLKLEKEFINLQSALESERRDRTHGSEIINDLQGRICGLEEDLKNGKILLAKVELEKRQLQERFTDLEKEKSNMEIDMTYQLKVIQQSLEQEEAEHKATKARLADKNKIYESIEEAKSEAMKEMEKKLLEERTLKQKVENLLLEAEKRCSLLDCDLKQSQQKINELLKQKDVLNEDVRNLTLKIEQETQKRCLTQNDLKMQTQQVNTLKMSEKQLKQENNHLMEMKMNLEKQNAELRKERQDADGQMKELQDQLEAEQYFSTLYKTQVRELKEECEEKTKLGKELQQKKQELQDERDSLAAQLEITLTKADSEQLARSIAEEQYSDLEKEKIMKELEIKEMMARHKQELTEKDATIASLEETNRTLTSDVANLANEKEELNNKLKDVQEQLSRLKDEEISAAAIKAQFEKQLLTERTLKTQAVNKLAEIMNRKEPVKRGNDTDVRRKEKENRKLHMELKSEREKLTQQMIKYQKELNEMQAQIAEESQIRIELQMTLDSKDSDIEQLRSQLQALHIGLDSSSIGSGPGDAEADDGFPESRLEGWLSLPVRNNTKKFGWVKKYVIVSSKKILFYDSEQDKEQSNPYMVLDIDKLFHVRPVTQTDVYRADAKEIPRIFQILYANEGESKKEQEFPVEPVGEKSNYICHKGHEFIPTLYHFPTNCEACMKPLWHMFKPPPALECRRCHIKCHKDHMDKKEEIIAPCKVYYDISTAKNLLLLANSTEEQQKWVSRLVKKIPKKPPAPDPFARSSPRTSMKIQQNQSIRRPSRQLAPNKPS
test: Inhibition of ROCK2 (unknown origin) using C-terminus recombinant MBS (654-880 residues) as substrate at 10 uM incubated for 30 mins in presence of ATP by ELISA relative to control
measured-metric: inhibition (%)

See these solved cases before continuing.
inhibition for CN(C)CCc1sc(NC(=O)C2COc3ccccc3O2)nc1-c1ccncc1 (stereo unspecified) ? 78.5

Thanks! And CN1CCN(Cc2sc(NC(=O)c3cccnc3)nc2-c2cccnc2)CC1 ? 32.1

# repeat for CN1CCN(c2sc(NC(=O)c3ccncc3)nc2-c2ccncc2)CC1 34.3

Also O=C(Nc1nc(-c2cccnc2)c(CN2CCOCC2)s1)c1ccncc1 ? 51.1

CC(C)N(C)c1sc(NC(=O)c2ccncc2)nc1-c1ccncc1 ? 32.1

[1] O=C(Nc1nc(-c2ccncc2)c(N2CCOCC2)s1)C1COc2ccccc2O1 (stereo unspecified)
[2] CC(C)N(C)Cc1sc(NC(=O)c2cccnc2)nc1-c1cccnc1
Hi, I'm comparing 1 with 2 and wondering which one has the bigger number for inhibition. Any idea? Answer with the label corresponding to your selection. 1

[P] O=C(Nc1nc(-c2cccnc2)c(CN2CCOCC2)s1)C1COc2ccccc2O1 (stereo unspecified)
[Q] CN(C)C(=O)Cc1sc(NC(=O)c2ccncc2)nc1-c1ccncc1
Hey, between P and Q which has a smaller measured inhibition? Write down the label of the entry you select. Q

[1] CN(C)CCc1sc(NC(=O)c2ccncc2)nc1-c1ccncc1
[2] CN(C)Cc1sc(NC(=O)c2cccnc2)nc1-c1cccnc1
Smaller inhibition value, 1 vs 2 ? Answer by quoting the chosen item's label. 2
(2: 33.9%, 1: 48.8%)
